Field: drug sensitivity score. Provide a value for each of the molecules that follow.
System: MCF-7
Assay: drug sensitivity score (DSS) (DSS (dimensionless)); higher = more sensitive; extreme values may be limits of the assay
Settings: 4-OH-tamoxifen in medium 0 µM; 72 h
Keep it simple and answer with nothing but the number.

Exercise: Please respond with reported drug sensitivity score (system MCF-7) for "CC(C)C[C@H](NC(=O)[C@H](CCc1ccccc1)NC(=O)CN1CCOCC1)C(=O)N[C@@H](Cc1ccccc1)C(=O)N[C@@H](CC(C)C)C(=O)[C@@]1(C)CO1" .
Solution: 17.9

Exercise: Please respond with reported drug sensitivity score (system MCF-7) for "Cc1cccc(-c2nn3c(c2-c2ccnc4ccc(C(N)=O)cc24)CCC3)n1" .
Solution: 0

Exercise: Please respond with reported drug sensitivity score (system MCF-7) for "Cn1c(=O)c(F)c(Nc2ccc(I)cc2F)c2c(=O)n(C[C@@H](O)CO)cnc21" .
Solution: 1.63

Exercise: Please respond with reported drug sensitivity score (system MCF-7) for "CO[C@@H](C(=O)N1Cc2[nH]nc(NC(=O)c3ccc(N4CCN(C)CC4)cc3)c2C1)c1ccccc1" .
Solution: 0

Exercise: Please respond with reported drug sensitivity score (system MCF-7) for Cn1cc(C2=Nc3cc(NC(=O)C(N)C4CCCCC4)cc4c3C2=CNNC4=O)cn1 (stereo not drawn) .
Solution: 2.19

Exercise: Please respond with reported drug sensitivity score (system MCF-7) for "COC1=C2C[C@@H](C)C[C@H](OC)[C@H](O)[C@@H](C)/C=C(\C)[C@H](OC(N)=O)[C@@H](OC)/C=C\C=C(/C)C(=O)NC(=CC1=O)C2=O" .
Solution: 5.35

Exercise: Please respond with reported drug sensitivity score (system MCF-7) for "Cn1cnc2c(F)c(Nc3ccc(Br)cc3Cl)c(C(=O)NOCCO)cc21" .
Solution: 0.0626

Exercise: Please respond with reported drug sensitivity score (system MCF-7) for "C=C1C[C@@H]2[C@H](CC[C@]3(C)C(=O)CC[C@@H]23)[C@@]2(C)C=CC(=O)C=C12" .
Solution: 1.3

The origin of these recorded values is the supplement of paper PMC4932681.
